# System: Rattus
# Assay Info: Inhibition of voltage -gated K+ currents was measured by whole cell voltage clamp recordings from dissociated rat superior cervical ganglion neurons at 10 uM
# Type: functional
Consider the following molecules and their measured inhibition at 10 µM readings.
API: value field is a number in %; no unit string.

Molecule: c1ccc(CC2CCN(CCOc3ccccc3)CC2)cc1
Study Target: Rattus
Units Symbol: %
inhibition at 10 µM: 65
//
Molecule: OC(CN1CCC(Cc2ccc(F)cc2)CC1)c1ccc(Cl)cc1 (configuration not stated)
Study Target: Rattus
Units Symbol: %
inhibition at 10 µM: 67
//
Molecule: Oc1ccc(OCCN2CCC(Cc3ccccc3)CC2)cc1
Study Target: Rattus
Units Symbol: %
inhibition at 10 µM: 46
//
Molecule: Cc1ccc(CC2(O)CCN(CCOc3ccc(O)cc3)CC2)cc1
Study Target: Rattus
Units Symbol: %
inhibition at 10 µM: 23

I'd like to know its inhibition at 10 µM. The molecule in question is `Cc1ccc(CC2CCN(CCOc3ccc(O)cc3)CC2)cc1`
67

# repeat for C[C@@H]([C@H](O)c1ccc(O)cc1)N1CCC(Cc2ccccc2)CC1 [(R,S)-IFENPRODIL]
54

# repeat for `Oc1ccc(OCCN2CCC(Cc3ccc(F)cc3)CC2)cc1`
53

###

Consider the following compounds and their measured log10 of IC50 readings.
# Study Target: Glutamate NMDA receptor; Grin1/Grin2b (Rattus norvegicus, UniProt P35439+Q00960)
# Sequence (Q00960 whole entry, other chains not shown): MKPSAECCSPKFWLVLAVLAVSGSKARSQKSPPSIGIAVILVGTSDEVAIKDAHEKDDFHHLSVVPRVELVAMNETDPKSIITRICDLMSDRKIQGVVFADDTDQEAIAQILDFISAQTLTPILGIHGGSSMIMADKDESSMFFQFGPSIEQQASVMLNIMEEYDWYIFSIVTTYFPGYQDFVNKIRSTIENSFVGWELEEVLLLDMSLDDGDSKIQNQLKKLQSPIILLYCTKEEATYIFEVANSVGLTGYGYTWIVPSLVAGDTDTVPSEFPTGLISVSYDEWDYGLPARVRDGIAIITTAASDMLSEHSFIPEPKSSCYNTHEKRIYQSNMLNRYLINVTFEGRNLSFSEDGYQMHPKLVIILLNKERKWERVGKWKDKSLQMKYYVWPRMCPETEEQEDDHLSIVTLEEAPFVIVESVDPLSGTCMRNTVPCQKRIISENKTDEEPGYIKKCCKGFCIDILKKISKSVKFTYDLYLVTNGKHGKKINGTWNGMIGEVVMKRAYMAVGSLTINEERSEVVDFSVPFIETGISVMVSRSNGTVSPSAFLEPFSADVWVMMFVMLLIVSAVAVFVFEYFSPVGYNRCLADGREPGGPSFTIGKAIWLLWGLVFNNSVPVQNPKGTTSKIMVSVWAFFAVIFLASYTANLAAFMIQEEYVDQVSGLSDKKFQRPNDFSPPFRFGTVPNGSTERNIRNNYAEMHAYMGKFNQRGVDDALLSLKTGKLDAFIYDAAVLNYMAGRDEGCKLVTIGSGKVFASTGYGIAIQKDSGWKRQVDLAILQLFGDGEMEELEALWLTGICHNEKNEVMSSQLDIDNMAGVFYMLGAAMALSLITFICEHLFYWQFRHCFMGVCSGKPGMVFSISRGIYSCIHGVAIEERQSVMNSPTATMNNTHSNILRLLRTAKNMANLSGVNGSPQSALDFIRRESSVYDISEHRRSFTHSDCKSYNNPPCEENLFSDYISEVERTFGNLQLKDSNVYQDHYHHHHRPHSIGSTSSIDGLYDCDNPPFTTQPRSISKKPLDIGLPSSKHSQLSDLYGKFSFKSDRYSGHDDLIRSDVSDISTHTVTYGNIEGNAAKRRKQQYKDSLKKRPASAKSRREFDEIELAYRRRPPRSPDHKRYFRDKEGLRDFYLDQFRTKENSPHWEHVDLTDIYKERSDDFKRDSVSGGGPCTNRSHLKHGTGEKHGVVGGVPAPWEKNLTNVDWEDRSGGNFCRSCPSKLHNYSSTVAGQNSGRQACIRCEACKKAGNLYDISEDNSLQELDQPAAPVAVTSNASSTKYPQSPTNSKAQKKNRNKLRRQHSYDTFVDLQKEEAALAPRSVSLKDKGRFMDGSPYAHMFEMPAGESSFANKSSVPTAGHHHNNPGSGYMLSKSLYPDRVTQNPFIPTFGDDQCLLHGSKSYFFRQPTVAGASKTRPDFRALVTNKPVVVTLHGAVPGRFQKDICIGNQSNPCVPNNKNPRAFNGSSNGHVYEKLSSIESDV
# Assay Info: In vitro inhibitory concentration against NMDA responses at NR1A/2B receptors expressed in Xenopus oocytes
The figures below represent log10 of IC50, where IC50 is stated in nM.

Compound: OC(CN1CCC(Cc2ccc(F)cc2)CC1)c1ccc(Cl)cc1 (configuration not stated)
Readout Type: log10 of IC50
Observed Measurement: 3.15

I'd like to know its log10 of IC50. The compound in question is `c1ccc(CC2CCN(CCOc3ccccc3)CC2)cc1`
2.80

# repeat for `Oc1ccc(OCCN2CCC(c3ccccc3)CC2)cc1`
3.89

###

# Study Target: Glutamate NMDA receptor; Grin1/Grin2a (Rattus norvegicus, UniProt P35439+Q00959)
# Sequence (Q00959 whole entry, other chains not shown): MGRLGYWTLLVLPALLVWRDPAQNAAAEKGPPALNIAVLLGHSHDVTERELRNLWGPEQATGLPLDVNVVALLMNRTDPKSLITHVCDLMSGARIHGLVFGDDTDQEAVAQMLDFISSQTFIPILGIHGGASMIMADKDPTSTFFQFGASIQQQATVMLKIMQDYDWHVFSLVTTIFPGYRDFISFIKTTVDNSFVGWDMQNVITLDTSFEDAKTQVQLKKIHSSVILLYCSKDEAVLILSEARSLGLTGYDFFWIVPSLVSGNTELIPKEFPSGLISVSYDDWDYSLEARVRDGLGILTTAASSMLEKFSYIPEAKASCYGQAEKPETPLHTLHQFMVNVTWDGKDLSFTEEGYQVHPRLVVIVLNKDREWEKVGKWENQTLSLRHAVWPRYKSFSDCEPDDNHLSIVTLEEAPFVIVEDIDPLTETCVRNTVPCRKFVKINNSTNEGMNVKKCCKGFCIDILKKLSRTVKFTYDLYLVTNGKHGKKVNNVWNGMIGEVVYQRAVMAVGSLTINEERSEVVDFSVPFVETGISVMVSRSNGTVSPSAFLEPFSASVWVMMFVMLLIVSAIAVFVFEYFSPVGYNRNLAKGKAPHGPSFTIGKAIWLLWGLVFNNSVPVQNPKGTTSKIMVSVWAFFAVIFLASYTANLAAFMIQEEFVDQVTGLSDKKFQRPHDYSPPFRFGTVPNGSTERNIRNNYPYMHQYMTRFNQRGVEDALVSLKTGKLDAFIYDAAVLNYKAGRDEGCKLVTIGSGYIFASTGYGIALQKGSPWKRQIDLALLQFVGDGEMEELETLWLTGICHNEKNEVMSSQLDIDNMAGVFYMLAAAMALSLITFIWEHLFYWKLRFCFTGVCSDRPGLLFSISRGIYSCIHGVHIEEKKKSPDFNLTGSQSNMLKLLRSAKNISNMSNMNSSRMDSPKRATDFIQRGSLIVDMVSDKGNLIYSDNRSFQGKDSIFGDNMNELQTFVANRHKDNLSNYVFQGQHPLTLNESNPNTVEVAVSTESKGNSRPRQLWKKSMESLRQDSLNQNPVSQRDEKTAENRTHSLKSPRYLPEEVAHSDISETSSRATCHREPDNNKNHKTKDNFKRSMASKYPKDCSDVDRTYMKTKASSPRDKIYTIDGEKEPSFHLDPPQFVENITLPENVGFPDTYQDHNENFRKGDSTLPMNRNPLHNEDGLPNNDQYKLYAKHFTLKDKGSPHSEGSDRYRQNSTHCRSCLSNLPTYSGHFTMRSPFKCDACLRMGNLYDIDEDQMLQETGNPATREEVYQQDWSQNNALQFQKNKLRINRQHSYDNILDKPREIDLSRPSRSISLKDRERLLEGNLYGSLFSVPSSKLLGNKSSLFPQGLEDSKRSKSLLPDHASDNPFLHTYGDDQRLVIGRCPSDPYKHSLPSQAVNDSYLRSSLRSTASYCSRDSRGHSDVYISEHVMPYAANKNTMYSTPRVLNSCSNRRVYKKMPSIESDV
# Assay Info: In vitro inhibitory concentration against NMDA responses at cloned NR1A/2A receptors expressed in Xenopus oocytes
Readout Type: pIC50
Scale: pIC50 equals -log10([C]), with [C] in mol/L.

I'd like to know its pIC50. The compound in question is `Oc1ccc(OCCN2CCC(c3ccccc3)CC2)cc1`
3.96

# repeat for `Oc1ccc(OCCN2CCC(Cc3ccc(F)cc3)CC2)cc1`
4.68

# repeat for OC(CN1CCC(Cc2ccc(F)cc2)CC1)c1ccc(Cl)cc1 (configuration not stated)
4.00

###

# Study Target: Adrenergic receptor alpha-1 (Rattus norvegicus, UniProt P15823+P23944+P43140)
# Sequence (P15823 whole entry): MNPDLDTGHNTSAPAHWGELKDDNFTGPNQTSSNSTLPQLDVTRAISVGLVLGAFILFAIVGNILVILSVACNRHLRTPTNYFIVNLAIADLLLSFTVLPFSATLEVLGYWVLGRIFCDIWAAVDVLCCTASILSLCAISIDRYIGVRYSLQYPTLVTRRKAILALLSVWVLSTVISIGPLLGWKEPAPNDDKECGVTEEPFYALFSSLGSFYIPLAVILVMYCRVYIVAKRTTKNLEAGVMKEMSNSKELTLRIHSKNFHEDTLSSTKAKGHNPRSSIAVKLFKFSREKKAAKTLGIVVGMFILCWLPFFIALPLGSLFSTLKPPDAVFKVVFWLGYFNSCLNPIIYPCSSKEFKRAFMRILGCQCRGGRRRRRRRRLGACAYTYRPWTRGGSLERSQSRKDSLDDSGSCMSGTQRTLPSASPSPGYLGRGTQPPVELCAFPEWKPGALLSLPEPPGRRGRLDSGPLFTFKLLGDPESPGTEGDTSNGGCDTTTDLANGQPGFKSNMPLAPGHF
# Sequence (P23944 whole entry): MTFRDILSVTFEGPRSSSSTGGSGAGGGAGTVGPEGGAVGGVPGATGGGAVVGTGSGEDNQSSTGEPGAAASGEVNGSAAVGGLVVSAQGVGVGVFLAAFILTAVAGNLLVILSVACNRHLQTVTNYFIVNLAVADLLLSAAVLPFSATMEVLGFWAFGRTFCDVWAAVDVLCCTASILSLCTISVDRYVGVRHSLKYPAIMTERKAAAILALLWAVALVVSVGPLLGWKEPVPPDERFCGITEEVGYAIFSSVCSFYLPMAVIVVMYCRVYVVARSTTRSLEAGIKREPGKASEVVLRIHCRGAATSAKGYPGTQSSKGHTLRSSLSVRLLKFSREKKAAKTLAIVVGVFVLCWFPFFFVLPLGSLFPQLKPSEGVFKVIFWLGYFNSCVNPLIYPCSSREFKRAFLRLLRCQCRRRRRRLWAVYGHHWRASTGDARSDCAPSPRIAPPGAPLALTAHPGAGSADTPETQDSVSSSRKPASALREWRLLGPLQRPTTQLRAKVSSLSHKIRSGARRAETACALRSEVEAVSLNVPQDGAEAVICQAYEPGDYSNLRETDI
# Sequence (P43140 whole entry): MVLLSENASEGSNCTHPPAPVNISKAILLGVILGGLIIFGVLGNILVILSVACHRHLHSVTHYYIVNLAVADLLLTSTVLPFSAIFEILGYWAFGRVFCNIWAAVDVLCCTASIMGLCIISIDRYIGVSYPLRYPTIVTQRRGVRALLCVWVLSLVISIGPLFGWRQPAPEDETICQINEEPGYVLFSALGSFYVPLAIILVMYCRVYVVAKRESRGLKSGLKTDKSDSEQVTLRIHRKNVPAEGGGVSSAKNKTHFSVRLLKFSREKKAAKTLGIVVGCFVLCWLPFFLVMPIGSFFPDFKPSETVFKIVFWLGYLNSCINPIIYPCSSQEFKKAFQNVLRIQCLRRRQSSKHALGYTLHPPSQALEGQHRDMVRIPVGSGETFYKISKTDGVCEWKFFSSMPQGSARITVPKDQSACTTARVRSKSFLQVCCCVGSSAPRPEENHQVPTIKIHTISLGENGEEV
# Assay Info: Affinity for alpha-1 adrenergic receptor in rat was determined by [3H]- prazosin binding assay
IC50 under 2 µM gets Criterion met, anything at or over 2 µM gets Criterion not met.

Worked examples, 6 compounds total:
Compound: Cc1ccc(CC2(O)CCN(CCOc3ccc(O)cc3)CC2)cc1
Discrete Label: Criterion not met
--
Compound: OC(CN1CCC(Cc2ccc(F)cc2)CC1)c1ccc(Cl)cc1 (configuration not stated)
Discrete Label: Criterion not met
--
Compound: Oc1ccc(OCCN2CCC(Cc3ccc(F)cc3)CC2)cc1
Discrete Label: Criterion met
--
Compound: c1ccc(CC2CCN(CCOc3ccccc3)CC2)cc1
Discrete Label: Criterion met
--
Compound: Oc1ccc(OCCN2CCC(Cc3ccccc3)CC2)cc1
Discrete Label: Criterion met
--
Compound: Cc1ccc(CC2CCN(CCOc3ccc(O)cc3)CC2)cc1
Discrete Label: Criterion met

# input for lookup
Could you please tell me whether IC50 recorded for C[C@@H]([C@H](O)c1ccc(O)cc1)N1CCC(Cc2ccccc2)CC1 [(R,S)-IFENPRODIL] is less than 2 µM?
Criterion met
